assay: soluble fraction after stress (log2 fold change); higher = more stays soluble; pooled small domains, quantitative proteomics; conditions: stress: 50 degC
ASSAY_METRIC: soluble fraction (log2)
Response field accepts a number only; no unit should be typed.

[ask] May I ask what soluble fraction (log2) has been recorded for HMNFEIEVTENGKRIDSYLAEELDLSRSKVQKLIKQELVTVNGKVVSNNYNVKLGDTILVNDD ?
[reply] 0.0352

[ask] Record: HMGKAMIDWEREQSILRILLRQKALTTEQAREVYQDGMREDLSALEMGVQRGYFTHEQLREATGGE
[reply] 0.0179

[ask] Please give the result for HMSFDGFSDRLKSVLNSGKYTQKEAAEKINISEYSFTKYLNGRIPQTEILYKIARLYNKSMEWLLTGKDPI too.
[reply] -2.01

[ask] What about this sequence? HMLKIVRSREEVESRLYTIYGNVKGRRLYNFYLSLIIDGLDIVKARTSKNVYYTNIRNLKNAGIDFSQKIN
[reply] -2.38

[ask] Next up: HMEDPPISQEQRQALFKMAHDHLGKDEGNKAILTLIQSHGLNSTTGMKVSTYNTIMEELVSTIQSLAA
[reply] -0.0686

[ask] And the next one, HMRQGHLDLLRQIHALPPSTREVVYLRAFGGLSFREIGDVLGRTETWARVTFYRGKEALRKG ?
[reply] 0.0194

[ask] Another: HMTTTFGWENLVGEKGIAATDLHPSGWVTVKDQRVFVVSEGTFIEEGKEVEIMNVDGNRIVVREFKN
[reply] 0.0515

[ask] Follow-up item: HMGVDMGPAKYVGQKALTATEMRPAGKIQIGQTVFDAVSVGPFIGARKAVKVIKYENAQLYVEPE
[reply] 0.00597

* * *

Provide the reported soluble fraction (log2) of each item.
experiment: soluble fraction after stress (log2 fold change); higher = more stays soluble; pooled small domains, quantitative proteomics; conditions: stress: 50 degC
# print the numeric value only

[ask] Could you share which soluble fraction (log2) value was measured for HMRHLSVPNRQVEGALDHIRSQGWLAEGMRVFASEDGSARLIPLGPGAPLEMLEPLAKFDVISHEGKPY ?
[reply] -0.0914

[ask] And for HMGEILYSGVLKGGDGPEATKLALEKFLGEANTQVAGRIGVQPETQVIWLSREAVDSAASTLSQHKGNMYV ?
[reply] -0.085

[ask] Next entry: HMVMETLAERINTALQTKGLSVNALARRVGVSYPAMRKITKGETLNPKFLFEIAEALGVSVEWLKTGEGSP
[reply] -0.372

[ask] # repeat for HMDDPEISQEQRQQLFRTAKEHFGASGNDVLKEILADHGRDSTVKMPVSVFAEIMGDLLKRALD
[reply] 0.432

* * *

assay: soluble fraction after stress (log2 fold change); higher = more stays soluble; pooled small domains, quantitative proteomics; details: stress: 50 degC
ASSAY_METRIC: soluble fraction (log2)
Respond numerically, and do not add a unit to the figure.

[ask] Quick one: soluble fraction (log2) for HMTVKRNLVQEILRLKFRHPENFMPNRAFYQEVGINQMRWWDIFYGRKNINQEEYIALSKYF ?
[reply] -0.237

[ask] Let us now turn to HMGTMKGFVDGSSVHLRSGPSLSESIRAKVVKGQTLYITERRGDWYRATVHGGGEGWIHTSLVKLAG
[reply] 0.178

[ask] And the next one, HMNPSAFSEYSFELLQSALLKKKIDENLSNQTIARDAGVSEAFVQKVLTNNVKRPSVKNRVRMISYLGLD ?
[reply] -1.22

[ask] Field entry: HMKPTVKGHFTRKESNVGGYADVRGWGVAGTPSMMANQSKDTRRFSTLIVPGRSVNVHPSPTKEAIIWWQS
[reply] -0.0091

[ask] Entry HMGNVGEAIEALVKGFQEGNQFQTLLGVTGSGKTFTMANVIAALNKPTLIISHNKTLAAQLYLSLIHIS please
[reply] 0.112

[ask] Another sequence to look at: HMPTMEQTYIGRTMIAEEDMGKNSKIKVSGIYWTAYNKGRVIKKGEEYKITGIEGNKLIVSSK
[reply] -0.0359

[ask] Follow-up entry: HMTRLDLQNAFRVLPPEIQPAAVLFFLQERKQREIAKILGIGLPLVKYRIRKARELLAQFLRKEA
[reply] -0.241

[ask] Ok, now HMLPLLEYLDPFTGKKTYTYLNPDTQHPIFTYYSYQDDKTGRTAYSYIDPLTGKAVNSDEPPMDILYD
[reply] -0.441

[ask] # repeat for HMRKEPSYASDIITRLKEADLIVVEGTLYPLLTRLKKDGLLSYEWRESTQGPPRKYYALTLDGET
[reply] -0.455

[ask] What would you report for HMPSQLPLAFARRHGVLLRGFSNGLAQLTVRPEVSTLSLAETRRHLGVPLALEKVTTERFDQLLREAYEA ?
[reply] -0.37

[ask] # repeat for HMEETEVPPVTGYEQSKASEVLTGKGLIPDIITVADEETAAGYVIRTDPASGEKVPSGTTVKVYVSSGP
[reply] 0.159

[ask] Another: HMTAVNEHELMNQFKLSLGYANGDDPQTKLSTDEKNDFMRFKEWATAMTKDSKMGKDPDYLKKLAVQWTLK
[reply] 0.214

[ask] Try HMEALPELTDRQRQVYEFIEARIAEWGYPPTIREIGQHLGIKSTNGVADHLKALKRKGYLQQ next.
[reply] -0.0721

[ask] Now the sequence HMNIQPAMLNAANGGVAWKERGISMSQIMKRNAHTAEGSQKLWDYAFENFFQKNIDAGNIRDDR
[reply] 0.0644

[ask] Cool, now HMEPTIGTATVTSGSRLNMRSAKSTSASVVTRIPSGATVGVISYASDWSKVTYNGYTGYVSSPYISMNG
[reply] -0.198

[ask] Similarly, HMREPIPVPSRPIRAGDLVEIPGTNRPAEVTAVKGDRLVLKAGVLSMTVKNDEVRLIEDDERAAM ?
[reply] 0.0715

[ask] And HMEIGELITLYRKQAGLTIDELSEKANVPKGTLNKIIGGITKAPTLETMRSIAYALGKKLADFDN ?
[reply] -0.34

* * *

What soluble fraction (log2) was measured for each of the following?
assay: soluble fraction after stress (log2 fold change); higher = more stays soluble; pooled small domains, quantitative proteomics; conditions: stress: 50 degC
When you answer, write just the number.

[ask] Any idea what soluble fraction (log2) was measured for HMYPDNEQTLSKLAFEFFKKRNIPISQSNINQIVTKSLGDRENLYNELLKIENFSTSGKKLTDNVIKKLIN ?
[reply] 0.00831

[ask] Another sequence: HMINFSKNIISDTTSIKEAIEILNIISGRDNHILFVLNDKRQLIGTLSDGDVRRGMLASKTISQSVTEVM
[reply] -0.351

[ask] Also HMLSKEERRSQLLDLGVRLLSTRSLDELSIDLLAEEAGISRGLLYHYFGNKHDFHEAVVRRAADDLI , if possible.
[reply] -1.75

[ask] Next sequence: HMQVTPQVLRLLDVLGDKELSLRQIAEALGLSDRKNIMRNYVVPALDSGRVVRTVPNKPNSRFQKYRK
[reply] -0.404

[ask] Okay, and HMKVKEYKLVDWISTFTKNEGYGISQKAAMLLAEFLGDDLSRIANEIEKLKLLVEKGTTINDVHIEENI ?
[reply] -0.797

[ask] Continue with HMRMSQLSRLISILTLLKSKRLLTATELAEKYDVSIRTVYRDIRKLEEAGIPVYTIEGRGYSLMDNYT
[reply] -1.6

[ask] And then HMATTIDFTVGDDVQVMNGPLESFTGKVTELNEASQKVKVDVVMFGRVTNVELDFVQVKKIT , what is it?
[reply] 0.162

[ask] Now the same for HMSLLQTRQRHEALAALGFFKGDVAAEWSAASTEALRAAQASLGIRVDGKWGPQTEDAIGKALAERQG
[reply] -0.102

* * *

Would you mind telling me the reported soluble fraction (log2) of each entry?
experiment: soluble fraction after stress (log2 fold change); higher = more stays soluble; pooled small domains, quantitative proteomics; details: stress: 50 degC
// keep it numeric: no unit symbol after the value

[ask] # soluble fraction (log2) lookup, item HMKGPLKDLGPDPVTGKSILVKDGKFGTYVTDGETNATLRRGDIVELLTLERGMELLAEKRARATQ
[reply] 0.151

[ask] Do the same for HMDLLESLSAREREVVHLASRGLVNKLIARELGITERTVKAHLSSAFEKLHIKDRVHLALLVNGI please
[reply] -1.45

[ask] // query: HMKHAIKEKIRNEYVHGYLNEEGYRVMPTLDELIRKYEVPASSTYRASSKEGWKKQKEAFLEHLRGEIDA
[reply] -0.139

[ask] What about this sequence? HMTTPDIIVPDVKGMTVAEAQKALEEKGFKVKLEEMTQEGAVPGDVIRIDPVAGTKRKEGAKITLLIARG
[reply] 0.161

[ask] Also need HMFIQLSQEEKKVVEGLQQRSKTHLDALALEVGQNISKTAAMLMELEMKGVVRALPGKYYEL , thanks.
[reply] -0.888

[ask] How about this sequence: HMSQITEADYIPNTDKTWGELMEETGESLPNLVERYNNEMTKSNGKEQPQSIIQRIIEDYQMVS
[reply] 0.0384

[ask] Next entry: HMQSAKLSYSDFMQKVNAGDVVSVKIQGPKISGVTTGGGKFMTYAPEDPTLVSTLMQKKVEVMAEP
[reply] 0.178

[ask] Same again, this time with HMGKKGPELNDNEKIIFNIISKENSMNLDDLKNRTELSNKQWDKAIKGLRSHELVNIEKIDDQLLIHL
[reply] 0.196

[ask] Lookup HMDTPPGLSPEEQAIIDIITTRGDATINELTASIDIPTPRLMGMLVDMEFRSLIAAIPGGRYRI
[reply] -1.16

[ask] Can you handle HMVGEQISYIPLKFATASEVVKSLTSMFQQQKGIAPIRIVAEERTNAILLLASEADTARVKNLIAMMDKGV next?
[reply] -0.0246

[ask] Can you check HMDDERDRLVQQAMEGLSPALREILLLAYFQRMPYNQIAESLRIPLGTVKSRLHAAVAAFAKRWQELNRS next?
[reply] -0.693

[ask] And then HMGEAIPVPDIRHKSQADAERLLQDQGLAMMVTDTGYVKTLPANYILEQIPVAGEKVKSGHVVYVIINSG , what is it?
[reply] 0.0717

[ask] Field entry: HMNQRQLQIKQMLDVAQEVFLKQLKTVFPDVSEMTIRRDLILLEDMGYAVRTHGGAVSINRF
[reply] -2.14

[ask] Consider next the sequence HMESPSGGHRIALAFDQGTARAVDATYARLTGAGYEGRTKPWDAPWGQRYATVFDPDGNSVDLFAALE in the same way.
[reply] -0.263

[ask] Ok, now HMWPDDAIALPTRDGQDVGGAQERTMLAFASGAAGIRTVEEINPDGSITRLRTRYGWPTFETEGARTAAAE
[reply] -0.109

[ask] Field entry: HMVSGLEILKIQVQDHPSDWRWALLLARTHYENGNREAAVRTLRPLQRLHPDRLEVMTLWALLA
[reply] -0.00253

[ask] Note, next up: HMKGLDRATNKALLLKHIIDNGSTGTRFSELRQVLPSLTRGSISSLLIELRSEGKIHSIGVTRNARWYPTE
[reply] -1.07
